Molecular target: T1, huCD4-HIS (human, UniProt P01730 26-390, limits assumed)
T1 construct: Named only in the head of the ELISA binning column; not shown: HIS tag
Assay: ELISA binning; competitor Ibalizumab, 100 ng/mL huCD4-HIS, anti-HIS HRP detection (background 45, max binding 3000000)
The following binders are shown together with reported Ibalizumab ELISA binning signal values.
// no unit string in output, number only

// solved cases for Ibalizumab ELISA binning signal follow
75110_05A11A (antibody, V domains shown, Tested as non-clonal hybridoma supernatant (AlivaMab Mouse Kappa), detected with anti-mouse Fc and anti-human kappa) VH: EVQLVESGGGLVKPGGSLTLSCAASGFTFSNTWMSWVRQAPGKGLEWVGRIKSKIDGGTTDYAAPVKGRFTISRDDSKNTLYLQMNSLKTEDTAVYYCTTSGTYSSGWGLFDYWGQGTLVTVSS VL: DIQMTQSPSSLSASVGDRVTITCQASQDISNYLNWYQQKPGKAPKLLIYDTSNLEAGVPSRFSGSGSGTHFTLTISSLQPEDIATYYCQQYDNLPFTFGGGTRVEIK ... 45
75110_05E05A (antibody, V domains shown, Tested as non-clonal hybridoma supernatant (AlivaMab Mouse Kappa), detected with anti-mouse Fc and anti-human kappa) VH: QVQLQESGPGLVKPSETLSLTCTVSGGSIGSYYWSWIRQPAGKGLEWIGRIYTSGSTNYNPSLKSRVTMSFDTSKNQFSLKLNSVTAADTAVYYCATDGGVGDSLDYWGQGTLVTVSS VL: DIVMTQTPLSLPVTPGEPASISCRSSQSLLDSDDGNTYLDWYLQKPGQSPQLLIYTLSYRASGVPDRFSGSGSGTDFTLKISRVEAEDVGVYYCMQHIEFPFTFGPGTKVDIK ... 1.64e+06
75110_02E22A (antibody, V domains shown, Tested as non-clonal hybridoma supernatant (AlivaMab Mouse Kappa), detected with anti-mouse Fc and anti-human kappa) VH: QVQLQESGPGLVKPSETLSLTCTVSGGSISSFYWSWIRQPAGKGLEWIGRIYTSGSTNYNPSLKSRVTMSVDTSKNQFSLKLSSVTAADTAVYYCARELEKRNYYGMDVWGQGTTVTVSS VL: DIQMTQSPSSLSASVGDRVTITCQASHDISNYLNWYQQKPGKAPKLLIFDASTLETGVPSRFSGSGSGTYFTFTIRSLQPEDIATYYCQQYDSLPLTFGGGTKVEIK ... 1.86e+06
75110_05E13A (antibody, V domains shown, Tested as non-clonal hybridoma supernatant (AlivaMab Mouse Kappa), detected with anti-mouse Fc and anti-human kappa) VH: EVQLVESGGDLVKPGGSLRLSCAASGFSFSNAWMSWVRQAPGKGLEWVGRVESKTDGGTTDYAAPVKDRFTISRDDSKYTLYLQMNSLKTEDSAVYYCTIGGGFGLELYGFFDYWGQGTLVTVSS VL: DIQMTQSPSTLSASVGDRVTITCRASQSISSWLAWYQQKPGKAPMLLIYKASSLESGVPSRFSGSGSGTEFTLTISSLQPDDFATYYCLQYNSYYTFGQGTKLEIK ... 45
75110_01C18A (antibody, V domains shown, Tested as non-clonal hybridoma supernatant (AlivaMab Mouse Kappa), detected with anti-mouse Fc and anti-human kappa) VH: EVQLVESGGGLIQPGGSLRLSCAASGFTVSSNYMNWVRQAPGKGLEWVSVIYAGDNTYSADSVKGRFTISRDNSNNTLCLQMNSLRAEDTAVYYCAREGGTTGAFDIWGQGTMVTVSS VL: DIQMTQSPSSVSASVGDRVTITCRASQGINSWLAWYQQKPGKAPKLLIYAASSLQSGVPSRFSGSGSGTDFTLTISSLQPEDFATYYCQQGNSFPYTFGQGTKLEIK ... 1.78e+06

Enquiry: What does the data say about its Ibalizumab ELISA binning signal? Entry: 75110_04H17A (antibody, V domains shown, Tested as non-clonal hybridoma supernatant (AlivaMab Mouse Kappa), detected with anti-mouse Fc and anti-human kappa) VH: QVQLQESGPGLVKPSETLSLTCTVSGGSISTYYWSWIRQSAGKGLEWIGRIYTSERPNYNPSLKSRVTMSVDTSKNQFSLKLNSVSAADTAVYYCARELERPYYYGMDVWGQGTTVTVSS VL: DVQMTQSPSSLSASVGGRVTITCQASQDISNYLNWYQQKPGKAPKLLIYYASNLETGVPSRFSGSGSGTDFTFTISSLQPEDFATYYCQQYDNLPLTFGGGTKVEIK
Return: 1.89e+06

Enquiry: What does the data say about its Ibalizumab ELISA binning signal? Entry: 75110_02I18A (antibody, V domains shown, Tested as non-clonal hybridoma supernatant (AlivaMab Mouse Kappa), detected with anti-mouse Fc and anti-human kappa) VH: EVQVVESGGGLVQPGGSLRLSCAASGFTFSSYDMHWVRQATGKGLEWVSTIGTAGDTYYPGSVKGRFTISRENAKNSLYLQMNSLRAGDTAVYYCARGGYYYYGMDVWGQGTTVTVSS VL: EIVLTQSPGTLSLSPGERATLSCRASQSVSSSYLAWYQQKPGQSPRLLIHGASSRATGIPDRVSGSGSGTDFTLTISRLEPEDFAVYYCQQYGSSPFTFGPGTKVDIK
Return: 291000
